Reference source for all entries: patent US10968186B2

Liver microsome stability remaining % after 60 min incubation with NADPH, human LM reference
Experiment: Stability against human liver microsomes
Format: in vitro ADME
Conditions: 2 μM compound
Method: Determination of Stability Against Mouse and Human Mirosomes Pooled human liver microsomes (Cat. 452161; Lot. 23418) were purchased from Corning and pooled male mouse liver microsomes (Cat. M1000; Lot. 1210302) were purchased from Xenotech. Microsomes were stored at −80° C. prior to use. 40 μL of ultra-pure H2O was used instead of NADPH solution in the negative control. The negative control was used to exclude the misleading factor that was resulted from instability of chemical itself. […]
Result Type: Liver microsome stability remaining % after 60 min incubation with NADPH, human LM

Compound	Result
CO/N=C/c1c(C)c(Cl)c(OCF)c(C/C=C(C)/C=C/[C@@]2(C)[C@H](C)CC/C(=N\O)[C@@H]2C)c1O [Compound 11]	81%
CO/N=C/c1c(C)c(Cl)c(OC)c(C/C=C(C)/C=C/[C@@]2(C)[C@H](C)CCC(NC3COC3)[C@@H]2C)c1O (stereo partly drawn) [Compound 25]	66%
CCOC(=O)CO/N=C1\CC[C@@H](C)[C@](C)(/C=C/C(C)=C/Cc2c(O)c(/C=N/OC)c(C)c(Cl)c2OC)[C@H]1C [Compound 18]	86%
COc1c(Cl)c(C)c(/C=N/O)c(O)c1C/C=C(C)/C=C/[C@@]1(C)[C@H](C)CCC(C)(O)[C@@H]1C (stereo partly drawn) [Compound 7]	71%
CC(/C=C/[C@@]1(C)[C@H](C)CC/C(=N\OCC(=O)O)[C@@H]1C)=C\Cc1c(O)c(/C=N/O)c(C)c(Cl)c1OCF [Compound 27]	99%
CO/N=C/c1c(C)c(Cl)c(OC)c(C/C=C(C)/C=C/[C@@]2(C)[C@H](C)CCC(C)(O)[C@@H]2C)c1O (stereo partly drawn) [Compound 14]	99%
